# Tested on: LG0567-F671-PDC KRAS tumor spheroid viability
# PROTOCOL: Anticancer human tumor LG0567-F671-PDC patient-derived lung adenocarcinoma cell line growth inhibition [KRAS2]
# ASSAY SETUP: second compound 0.1 µM; first compound 0.1 µM; stronger effect = lower value; spheroids with HUVEC and MSC
# From the text: Multicellular complex tumor spheroid response to RAS pathway inhibitors in combination with a targeted agents in patient-derived cell lines with oncogenic KRAS variants from multiple cancer types A high-throughput screen of multi-cell type tumor spheroids was designed to identify active combinations of targeted small molecules and KRAS pathway inhibitors. […] Compounds. […] If the clinical Cmax for an agent had not been determined, the highest concentration tested was 10 microM. […]
MEASURED PARAMETER: viability, T/C (%)
Express the result in % but write the number alone.

In: What is its viability, T/C for LG0567-F671-PDC KRAS tumor spheroid viability? Entry: O=C(c1cc(Cc2n[nH]c(=O)c3ccccc23)ccc1F)N1CCN(C(=O)C2CC2)CC1 + CC1OCC2(CCN(c3cnc(Sc4ccnc(N)c4Cl)c(N)n3)CC2)C1N
Out: 54

In: What is its viability, T/C for LG0567-F671-PDC KRAS tumor spheroid viability? Entry: CCNC(=O)CC1N=C(c2ccc(Cl)cc2)c2cc(OC)ccc2-n2c(C)nnc21 (stereo not drawn) + COc1cc2nc(C)nc(NC(C)c3cc(N)cc(C(F)(F)F)c3)c2cc1OC1CCOC1
Out: 82.3

In: What is its viability, T/C for LG0567-F671-PDC KRAS tumor spheroid viability? Entry: Cn1nccc1Nc1nccc(-c2cc3c(s2)C(C)(C)N(CCN2CCOCC2)C3=O)n1 + C=CC(=O)N1CCN(c2nc(=O)n(-c3c(C)ccnc3C(C)C)c3nc(-c4c(O)cccc4F)c(F)cc23)C(C)C1
Out: 23.1

* * *

# Test system: LG0567-F671-PDC KRAS tumor spheroid viability
# PROTOCOL: Anticancer human tumor LG0567-F671-PDC cell line growth inhibition [KRAS2]; active = viability on the fitted dose curve at most 10% of control; inactive = the rest;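 note: drug exposure lasted seven days after spheroids formed for three days; 100% = DMSO vehicle control viability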
# ASSAY SETUP: second compound 10 µM; first compound 1 µM; spheroids with HUVEC and MSC
# Text: Multicellular complex tumor spheroid response to RAS pathway inhibitors in combination with a targeted agents in patient-derived cell lines with oncogenic KRAS variants from multiple cancer types A high-throughput screen of multi-cell type tumor spheroids was designed to identify active combinations of targeted small molecules and KRAS pathway inhibitors. […] Compounds. […] If the clinical Cmax for an agent had not been determined, the highest concentration tested was 10 microM. […]
Bench note: report the call from true (1) (active), false (0) (inactive)

In: Outcome logged for COc1cc(Nc2ncc3c(n2)-c2ccc(Cl)cc2C(c2c(F)cccc2OC)=NC3)ccc1C(=O)O + C=CC(=O)N1CCN(c2nc(=O)n(-c3c(C)ccnc3C(C)C)c3nc(-c4c(O)cccc4F)c(F)cc23)C(C)C1 in this assay:
Out: false (0)

In: Outcome logged for CCN1CCN(Cc2ccc(Nc3ncc(F)c(-c4cc(F)c5nc(C)n(C(C)C)c5c4)n3)nc2)CC1 + COc1cc2nc(C)nc(NC(C)c3cc(N)cc(C(F)(F)F)c3)c2cc1OC1CCOC1 in this assay:
Out: true (1)

In: Outcome logged for Cn1nccc1Nc1nccc(-c2cc3c(s2)C(C)(C)N(CCN2CCOCC2)C3=O)n1 + CC1OCC2(CCN(c3cnc(Sc4ccnc(N)c4Cl)c(N)n3)CC2)C1N in this assay:
Out: true (1)

In: Outcome logged for CC(C)NCC(C(=O)N1CCN(c2ncnc3c2C(C)CC3O)CC1)c1ccc(Cl)cc1 (stereo not given) + C=CC(=O)N1CCN(c2nc(=O)n(-c3c(C)ccnc3C(C)C)c3nc(-c4c(O)cccc4F)c(F)cc23)C(C)C1 in this assay:
Out: false (0)

In: Outcome logged for CC1COCCN1c1cc(-c2ccnn2C)c2ccnc(-c3ccn[nH]3)c2n1 (stereo not given) + COc1cc2nc(C)nc(NC(C)c3cc(N)cc(C(F)(F)F)c3)c2cc1OC1CCOC1 in this assay:
Out: false (0)

In: Outcome logged for COC(=O)c1ccc2c(C(=Nc3ccc(N(C)C(=O)CN4CCN(C)CC4)cc3)c3ccccc3)c(O)[nH]c2c1 + CNCc1ccccc1-c1csc(C(C)Nc2nc(C)nc3cc(OC)c(OC)cc23)c1 in this assay:
Out: true (1)

In: Outcome logged for CC(=O)OC12COC1CC(O)C1(C)C(=O)C(O)C3=C(C)C(OC(=O)C(O)C(NC(=O)OC(C)(C)C)c4ccccc4)CC(O)(C(OC(=O)c4ccccc4)C21)C3(C)C (stereo not given) + COc1cc2nc(C)nc(NC(C)c3cc(N)cc(C(F)(F)F)c3)c2cc1OC1CCOC1 in this assay:
Out: false (0)

In: Outcome logged for COc1cc2nccc(Oc3ccc(NC(=O)C4(C(=O)Nc5ccc(F)cc5)CC4)cc3)c2cc1OC + C=CC(=O)N1CCN(c2nc(=O)n(-c3c(C)ccnc3C(C)C)c3nc(-c4c(O)cccc4F)c(F)cc23)C(C)C1 in this assay:
Out: false (0)

In: Outcome logged for CCNC(=O)CC1N=C(c2ccc(Cl)cc2)c2cc(OC)ccc2-n2c(C)nnc21 (stereo not given) + COc1cc2nc(C)nc(NC(C)c3cc(N)cc(C(F)(F)F)c3)c2cc1OC1CCOC1 in this assay:
Out: false (0)

In: Outcome logged for CCN1CCN(Cc2ccc(Nc3ncc(F)c(-c4cc(F)c5nc(C)n(C(C)C)c5c4)n3)nc2)CC1 + C=CC(=O)N1CCN(c2nc(=O)n(-c3c(C)ccnc3C(C)C)c3nc(-c4c(O)cccc4F)c(F)cc23)C(C)C1 in this assay:
Out: false (0)

* * *

# Tested on: LG0567-F671-PDC KRAS tumor spheroid viability
# PROTOCOL: Anticancer human tumor LG0567-F671-PDC cell line growth inhibition [KRAS2];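 note: drug exposure lasted seven days after spheroids formed for three days; 100% = DMSO vehicle control viability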
# ASSAY SETUP: second compound 0.0316 µM; first compound 0.316 µM; stronger effect = lower value; spheroids with HUVEC and MSC
MEASURED PARAMETER: viability, T/C (%)
Express the result in % but write the number alone.

In: What is its viability, T/C for LG0567-F671-PDC KRAS tumor spheroid viability? Entry: CCNC(=O)CC1N=C(c2ccc(Cl)cc2)c2cc(OC)ccc2-n2c(C)nnc21 (stereo not drawn) + C=CC(=O)N1CCN(c2nc(OCC3CCCN3C)nc3c2CCN(c2cccc4cccc(C)c24)C3)CC1CC#N
Out: 36.7

In: What is its viability, T/C for LG0567-F671-PDC KRAS tumor spheroid viability? Entry: CCN1CCN(Cc2ccc(Nc3ncc(F)c(-c4cc(F)c5nc(C)n(C(C)C)c5c4)n3)nc2)CC1 + C=CC(=O)N1CCN(c2nc(OCC3CCCN3C)nc3c2CCN(c2cccc4cccc(C)c24)C3)CC1CC#N
Out: 27.6

In: What is its viability, T/C for LG0567-F671-PDC KRAS tumor spheroid viability? Entry: COC(=O)c1ccc2c(C(=Nc3ccc(N(C)C(=O)CN4CCN(C)CC4)cc3)c3ccccc3)c(O)[nH]c2c1 + C=CC(=O)N1CCN(c2nc(OCC3CCCN3C)nc3c2CCN(c2cccc4cccc(C)c24)C3)CC1CC#N
Out: 21.9

* * *

# System: LG0567-F671-PDC KRAS tumor spheroid viability
# PROTOCOL: Anticancer human tumor LG0567-F671-PDC cell line growth inhibition [KRAS2];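 note: drug exposure lasted seven days after spheroids formed for three days; 100% = DMSO vehicle control viability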
# ASSAY SETUP: second compound 0.1 µM; first compound 0.0316 µM; stronger effect = lower value; spheroids with HUVEC and MSC
API: label(entry) gives Condition met if the entry's viability, T/C is strictly smaller than 30%; on equality or larger values it gives Condition not met.

In: Decide: viability, T/C of Cn1nccc1Nc1nccc(-c2cc3c(s2)C(C)(C)N(CCN2CCOCC2)C3=O)n1 + C=CC(=O)N1CCN(c2nc(=O)n(-c3c(C)ccnc3C(C)C)c3nc(-c4c(O)cccc4F)c(F)cc23)C(C)C1 strictly below 30%?
Out: Condition met

In: Decide: viability, T/C of COC(=O)c1ccc2c(C(=Nc3ccc(N(C)C(=O)CN4CCN(C)CC4)cc3)c3ccccc3)c(O)[nH]c2c1 + CC1OCC2(CCN(c3cnc(Sc4ccnc(N)c4Cl)c(N)n3)CC2)C1N strictly below 30%?
Out: Condition not met

In: Decide: viability, T/C of Cn1nccc1Nc1nccc(-c2cc3c(s2)C(C)(C)N(CCN2CCOCC2)C3=O)n1 + C=CC(=O)N1CCN(c2nc(OCC3CCCN3C)nc3c2CCN(c2cccc4cccc(C)c24)C3)CC1CC#N strictly below 30%?
Out: Condition met

In: Decide: viability, T/C of CCNC(=O)CC1N=C(c2ccc(Cl)cc2)c2cc(OC)ccc2-n2c(C)nnc21 (stereo not given) + C=CC(=O)N1CCN(c2nc(OCC3CCCN3C)nc3c2CCN(c2cccc4cccc(C)c24)C3)CC1CC#N strictly below 30%?
Out: Condition not met

In: Decide: viability, T/C of COc1cc2nccc(Oc3ccc(NC(=O)C4(C(=O)Nc5ccc(F)cc5)CC4)cc3)c2cc1OC + C=CC(=O)N1CCN(c2nc(=O)n(-c3c(C)ccnc3C(C)C)c3nc(-c4c(O)cccc4F)c(F)cc23)C(C)C1 strictly below 30%?
Out: Condition met
